Attribution: the supplement of paper PMC11246515

assay: total protein half-life in vivo (active degradation + dilution); higher = more stable protein; conditions: E. coli NCM3722 delta-hslV; growth: N-lim chemostat; doubling time 6 h
Here, each record is paired with measured total protein half-life in vivo data.
Give just the numeric value; h need not be written.

[[record]]
sequence_code = "MAEAQNDPLLPGYSFNAHLVAGLTPIEANGYLDFFIDRPLGMKGYILNLTIRGQGVVKNQGREFVCRPGDILLFPPGEIHHYGRHPEAREWYHQWVYFRPRAYWHEWLNWPSIFANTGFFRPDEAHQPHFSDLFGQIINAGQGEGRYSELLAINLLEQLLLRRMEAINESLHPPMDNRVREACQYISDHLADSNFDIASVAQHVCLSPSRLSHLFRQQLGISVLSWREDQRISQAKLLLSTTRMPIATVGRNVGFDDQLYFSRVFKKCTGASPSEFRAGCEEKVNDVAVKLS [P0A9E0]"
metric = "total protein half-life in vivo"
readout_units = "h"
result_value = 1.21

[[record]]
sequence_code = "MANVEIYTKETCPYCHRAKALLSSKGVSFQELPIDGNAAKREEMIKRSGRTTVPQIFIDAQHIGGCDDLYALDARGGLDPLLK [P0AC62]"
metric = "total protein half-life in vivo"
readout_units = "h"
result_value = 4.93

[[record]]
sequence_code = "MTIKLIVGLANPGAEYAATRHNAGAWFVDLLAERLRAPLREEAKFFGYTSRVTLGGEDVRLLVPTTFMNLSGKAVAAMASFFRINPDEILVAHDELDLPPGVAKFKLGGGHGGHNGLKDIISKLGNNPNFHRLRIGIGHPGDKNKVVGFVLGKPPVSEQKLIDEAIDEAARCTEMWFTDGLTKATNRLHAFKAQ [P0A7D1]"
metric = "total protein half-life in vivo"
readout_units = "h"
result_value = 4.76

[[record]]
sequence_code = "MNTDTFMCSSDEKQTRSPLSLYSEYQRMEIEFRAPHIMPTSHWHGQVEVNVPFDGDVEYLINNEKVNINQGHITLFWACTPHQLTDTGTCQSMAIFNLPMHLFLSWPLDKDLINHVTHGMVIKSLATQQLSPFEVRRWQQELNSPNEQIRQLAIDEIGLMLKRFSLSGWEPILVNKTSRTHKNSVSRHAQFYVSQMLGFIAENYDQALTINDVAEHVKLNANYAMGIFQRVMQLTMKQYITAMRINHVRALLSDTDKSILDIALTAGFRSSSRFYSTFGKYVGMSPQQYRKLSQQRRQTFPG [P0ACH8]"
metric = "total protein half-life in vivo"
readout_units = "h"
result_value = 2.5

[[record]]
sequence_code = "MIGRLLRGGFMTAIYAYLYIPIIILIVNSFNSSRFGINWQGFTTKWYSLLMNNDSLLQAAQHSLTMAVFSATFATLIGSLTAVALYRYRFRGKPFVSGMLFVVMMSPDIVMAISLLVLFMLLGIQLGFWSLLFSHITFCLPFVVVTVYSRLKGFDVRMLEAAKDLGASEFTILRKIILPLAMPAVAAGWVLSFTLSMDDVVVSSFVTGPSYEILPLKIYSMVKVGVSPEVNALATILLVLSLVMVIASQLIARDKTKGNTGDVK [P0AFK6]"
metric = "total protein half-life in vivo"
readout_units = "h"
result_value = 5.12


Incoming: Using known records, supply total protein half-life in vivo for MAYSKIRQPKLSDVIEQQLEFLILEGTLRPGEKLPPERELAKQFDVSRPSLREAIQRLEAKGLLLRRQGGGTFVQSSLWQSFSDPLVELLSDHPESQYDLLETRHALEGIAAYYAALRSTDEDKERIRELHHAIELAQQSGDLDAESNAVLQYQIAVTEAAHNVVLLHLLRCMEPMLAQNVRQNFELLYSRREMLPLVSSHRTRIFEAIMAGKPEEAREASHRHLAFIEEILLDRSREESRRERSLRRLEQRKN [P0ACL9]
Outgoing: 4.94

Incoming: Using known records, supply total protein half-life in vivo for MEFAFYICGLIAILATLRVITHTNPVHALLYLIISLLAISGVFFSLGAYFAGALEIIVYAGAIMVLFVFVVMMLNLGGSEIEQERQWLKPQVWIGPAILSAIMLVVIVYAILGVNDQGIDGTPISAKAVGITLFGPYVLAVELASMLLLAGLVVAFHVGREERAGEVLSNRKDDSAKRKTEEHA [P0AFE0]
Outgoing: 4.21

Incoming: Using known records, supply total protein half-life in vivo for MAHRPRWTLSQVTELFEKPLLDLLFEAQQVHRQHFDPRQVQVSTLLSIKTGACPEDCKYCPQSSRYKTGLEAERLMEVEQVLESARKAKAAGSTRFCMGAAWKNPHERDMPYLEQMVQGVKAMGLEACMTLGTLSESQAQRLANAGLDYYNHNLDTSPEFYGNIITTRTYQERLDTLEKVRDAGIKVCSGGIVGLGETVKDRAGLLLQLANLPTPPESVPINMLVKVKGTPLADNDDVDAFDFIRTIAVARIMMPTSYVRLSAGREQMNEQTQAMCFMAGANSIFYGCKLLTTPNPEEDKDLQLFRKLGLNPQQTAVLAGDNEQQQRLEQALMTPDTDEYYNAAAL
Outgoing: 0.669

Incoming: Using known records, supply total protein half-life in vivo for MQLNKVLKGLMIALPVMAIAACSSNKNASNDGSEGMLGAGTGMDANGGNGNMSSEEQARLQMQQLQQNNIVYFDLDKYDIRSDFAQMLDAHANFLRSNPSYKVTVEGHADERGTPEYNISLGERRANAVKMYLQGKGVSADQISIVSYGKEKPAVLGHDEAAYSKNRRAVLVY [P0A912]
Outgoing: 6.46

Incoming: Using known records, supply total protein half-life in vivo for MIKKIGVLTSGGDAPGMNAAIRGVVRSALTEGLEVMGIYDGYLGLYEDRMVQLDRYSVSDMINRGGTFLGSARFPEFRDENIRAVAIENLKKRGIDALVVIGGDGSYMGAMRLTEMGFPCIGLPGTIDNDIKGTDYTIGFFTALSTVVEAIDRLRDTSSSHQRISVVEVMGRYCGDLTLAAAIAGGCEFVVVPEVEFSREDLVNEIKAGIAKGKKHAIVAITEHMCDVDELAHFIEKETGRETRATVLGHIQRGGSPVPYDRILASRMGAYAIDLLLAGYGGRCVGIQNEQLVHHDIIDAIENMKRPFKGDWLDCAKKLY [P0A796]
Outgoing: 4.03
